Would you mind telling me the reported pKi of each entry?
A value of pKi is the negative decimal logarithm of a concentration given in moles per litre.

*Q* Query for UniProt P47936: what pKi does the record show for CCCCC/C=C\C/C=C\C/C=C\C/C=C\CCCC(=O)N[C@H](C)CF ?
*A* 6.11

*Q* API: value(readout= pKi, system= UniProt P47936, query= CCCCC/C=C\C/C=C\C/C=C\C/C=C\CCCC(=O)N[C@@H](C)CF )
Sequence (P47936 whole entry): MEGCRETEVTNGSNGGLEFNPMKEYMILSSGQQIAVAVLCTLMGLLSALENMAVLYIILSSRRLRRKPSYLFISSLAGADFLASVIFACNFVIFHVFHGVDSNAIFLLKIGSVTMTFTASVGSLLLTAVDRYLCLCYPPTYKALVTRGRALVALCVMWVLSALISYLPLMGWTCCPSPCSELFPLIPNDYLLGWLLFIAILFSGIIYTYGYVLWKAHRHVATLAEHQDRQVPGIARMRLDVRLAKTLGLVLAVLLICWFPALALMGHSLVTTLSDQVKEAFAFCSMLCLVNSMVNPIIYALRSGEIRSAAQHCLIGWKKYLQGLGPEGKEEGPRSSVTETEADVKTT
*A* 5.87

*Q* Which measured pKi belongs to CCCCC/C=C\C/C=C\C/C=C\C/C=C\CCCCNC(=O)CCO [Analog 10, N-(3-Hydroxypropionyl)arachidonylamine] , tested on UniProt P47936?
*A* 5.45

*Q* For UniProt P47936, provide pKi of CCCCCC=CCC=CCC=CCC=CCCCC(=O)NCC(F)(F)F [Analog 9, N-(2,2,2-Trifluroethyl) arachidonylamide] please.
*A* 6.14

*Q* Form field - read-out: pKi; system: UniProt P47936; submitted item: CCCCC/C=C\C/C=C\C/C=C\C/C=C\CCCC(=O)N[C@H](C)CN=[N+]=[N-] (racemic)
*A* 5.91

*Q* Requested read-out pKi, target or system UniProt P47936, entry CCCCCC=CCC=CCC=CCC=CCCCC(=O)NCCCCl [Analog 6, N-(3-Chloropropyl)arachidonylamide]
*A* 6.71

*Q* Please tell me: pKi of CCCCCC=CCC=CCC=CCC=CCCCC(=O)NCCCl [Analog 5, N-(2-Chloroethyl)arachidonylamide] , system UniProt P47936?
*A* 6.71

*Q* Field: pKi (UniProt P47936). Entry: C=CCNC(=O)CCC/C=C\C/C=C\C/C=C\C/C=C\CCCCC [Analog 7, N-Allylarachidonylamide]
*A* 6.65

*Q* I'm curious: which pKi was measured for C#CCNC(=O)CCC/C=C\C/C=C\C/C=C\C/C=C\CCCCC [Analog 8, N-Propargylarachidonylamide] tested on UniProt P47936?
*A* 6.54
